# Assay Remarks: Biodistribution of 99mTc complexes in mice
# Type: in vivo, Balb/c mice
# Measurement Setup: 1 min
Strictly below 0.2 % Injected dose in biodistribution spleen: Condition met. Otherwise: Condition not met.

Here are 3 compounds together with their reported answers.
{"Compound": "O=C(O)CN(CCN(CC(=O)O)CC(=O)Nc1ccc(Cl)cc1O)CC(=O)Nc1ccc(Cl)cc1O [Compound 2]", "Group Label": "Condition met"}
{"Compound": "Nc1ccc(O)c(NC(=O)CN(CCN(CC(=O)O)CC(=O)Nc2cc(N)ccc2O)CC(=O)O)c1 [Compound 5]", "Group Label": "Condition met"}
{"Compound": "O=C(O)CN(CCN(CC(=O)O)CC(=O)Nc1ccccc1O)CC(=O)Nc1ccccc1O [Compound 1]", "Group Label": "Condition met"}

Here is another compound to look at.
Req: Is 0.2 % Injected dose strictly greater than the compound's reported biodistribution spleen? compound: CC(C)(C)c1ccc(O)c(NC(=O)CN(CCN(CC(=O)O)CC(=O)Nc2cc(C(C)(C)C)ccc2O)CC(=O)O)c1 [Compound 4]
Resp: Condition not met
